molecular target: AP-2 complex subunit beta (Homo sapiens) (UniProt P63010); assay: inhibitors of arrestin peptide binding to AP2, pilot screen, biochemical, validation set, GST-AP2 beads, flow cytometry (AID 504541); settings: FITC arrestin peptide, at 10 µM, active compounds read high, AP2 beta2 appendage fragment, R879A mutant;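 note: AP2 carries R879A mutation and is captured from E. coli lysate; bead-bound FITC arrestin peptide fluorescence measuring arrestin peptide binding to AP2; 0% = DMSO wells and 100% = excess unlabeled arrestin peptide control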
Sequence (P63010 whole entry, looked up, the tested form may be a part, one chain of several): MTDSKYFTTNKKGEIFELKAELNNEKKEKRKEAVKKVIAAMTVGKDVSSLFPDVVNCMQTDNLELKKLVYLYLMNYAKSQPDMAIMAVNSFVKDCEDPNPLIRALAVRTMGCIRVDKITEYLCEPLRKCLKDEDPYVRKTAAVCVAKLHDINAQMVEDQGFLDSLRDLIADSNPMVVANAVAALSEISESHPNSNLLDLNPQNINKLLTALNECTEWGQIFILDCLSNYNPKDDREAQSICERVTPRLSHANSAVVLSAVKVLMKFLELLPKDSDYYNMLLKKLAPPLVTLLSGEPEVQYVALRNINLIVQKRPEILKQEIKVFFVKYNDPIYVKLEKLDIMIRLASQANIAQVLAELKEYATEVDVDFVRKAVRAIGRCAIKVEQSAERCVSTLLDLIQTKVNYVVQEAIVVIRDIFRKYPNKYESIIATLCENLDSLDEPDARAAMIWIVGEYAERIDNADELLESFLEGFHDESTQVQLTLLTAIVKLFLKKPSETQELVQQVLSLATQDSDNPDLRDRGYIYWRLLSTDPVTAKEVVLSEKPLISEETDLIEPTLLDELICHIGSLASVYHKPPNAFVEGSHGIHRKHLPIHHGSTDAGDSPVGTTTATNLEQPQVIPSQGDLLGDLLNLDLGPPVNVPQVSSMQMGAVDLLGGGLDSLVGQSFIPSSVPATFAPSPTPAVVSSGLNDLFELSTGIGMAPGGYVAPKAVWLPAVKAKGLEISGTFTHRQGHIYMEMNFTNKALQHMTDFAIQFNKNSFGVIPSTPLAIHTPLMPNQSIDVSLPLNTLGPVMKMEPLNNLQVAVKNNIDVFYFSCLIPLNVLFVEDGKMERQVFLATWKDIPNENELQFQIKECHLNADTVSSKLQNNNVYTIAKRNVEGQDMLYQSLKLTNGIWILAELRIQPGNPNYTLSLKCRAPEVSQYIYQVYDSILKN
Consider the following compounds and their measured inhibition readings.
Outcome Measure: inhibition (%)

• CC1/C(=C\c2ccc(Cl)cc2)C(=O)C2CC1C2(C)C (stereo not given) = -1.54
• Cc1cccc(N2C(=O)C3C(c4ccccc4)OC4(C(=O)c5ccccc5C4=O)C3C2=O)c1 (stereo not given) = 6.34
• C[C@]12CCC(=O)C=C1CC[C@@H]1[C@@H]2C(=O)C[C@@]2(C)[C@H]1CC[C@]2(O)C(=O)CO = -9.52
• O=C(C1CCCCC1)N1CC(=O)N2CCc3ccccc3C2C1 (stereo not given) = -1.09
• CC(C)CCOCC(=O)Nc1cccc(C(=O)O)c1 = 41.3
• NC12CC3CC(CC(C3)C1)C2 = 0.4
• O=C(c1ccc(-c2ccccc2)c(F)c1)C1CCCN(C(=O)c2cncs2)C1 (stereo not given) = -11
• CC(=O)c1cn(C)c(=O)[nH]c1=O = -5.48
• OC(COCc1ccccc1)CN1CCN(Cc2ccc3c(c2)OCO3)CC1 (stereo not given) = -4.35
• CC(=O)OCC(=O)[C@@]12OC3(CCCC3)O[C@@H]1C[C@H]1[C@@H]3CCC4=CC(=O)C=C[C@]4(C)[C@@]3(F)[C@@H](O)C[C@@]12C = 26.6
• CC(=O)Nc1cc(O)cc(O)c1 = 0.4
• Cc1ccc2c(CN3CCN(Cc4ccc5c(c4)OCO5)CC3)cc(=O)oc2c1C = 4.85
• Cc1oc2ccc(OC(=O)c3cccs3)cc2c1C(=O)OC(C)C = -7.21
• COC(=O)C1=C(C)NC(C)=C(C(=O)OC)C1c1ccccc1[N+](=O)[O-] = 34.7
• CCCCC[C@H](O)/C=C/[C@@H]1[C@@H](C/C=C\CCCC(=O)O)[C@H]2CO[C@@H]1C2 = 1.57
• COC(=O)c1ccc(CC(=O)c2ccc(O)cc2O)o1 = 5.21
• CC1CCCc2sc3ncn(N)c(=N)c3c21 (stereo not given) = -3.27
• CCCCNc1cc(C(=O)O)cc(S(N)(=O)=O)c1Oc1ccccc1 = 1.29
• O=C(CCNNC(=O)c1ccncc1)NCc1ccccc1 = 26.4
• CCOc1ccc(C(=O)/C=C/c2cc(OC)c(OC)c(OC)c2)cc1 = 4.7
• COC1(C)CC2C(CC1OC(=O)c1cc([N+](=O)[O-])cc([N+](=O)[O-])c1)C2(C)C (stereo not given) = -6.29
• COc1cc(/C=C(\C#N)C(=O)N2CCc3ccccc32)ccc1O = -7.55
• COc1ccc(C(=O)Nc2nc3ccccc3c(=O)[nH]2)cc1 = 4.94
• O=c1c2ccccc2nc2n1-c1ccccc1CCC2 = -5.56
• CC1(C(=O)O)CCC(C(=O)NC2CCCCCC2)C1(C)C (stereo not given) = -8.9
• COc1ccc(C2(CCN=Cc3ccc(N(C)C)cc3)CCOC(C)(C)C2)cc1 (stereo not given) = -3.62
• CC(C)NCC(O)COc1ccc(CC(N)=O)cc1 (stereo not given) = -8.74
• COCCn1c(/C=C/c2ccccc2)nc2ccccc21 = 10.5
• CN1CCc2cccc3c2[C@H]1Cc1ccc(O)c(O)c1-3 = 3.9
• Cc1ccc(C(CC(=O)NCc2ccco2)c2ccc(OC(C)C)cc2)cc1 (stereo not given) = 37.9
• C[C@]12CCC(=O)C=C1CC[C@@H]1[C@@H]2CC[C@@]2(C)[C@H]1CC[C@]2(O)C(=O)CO = -3.62
• C=CCc1ccc(OCC(O)COc2ccc(CC=C)cc2OC)c(OC)c1 = 3.97
• CCn1cc(C(=O)O)c(=O)c2cc(F)c(N3CCNCC3)cc21 = 5.87
• CCN1C(=O)C(CC(=O)Nc2ccc(F)cc2)N(Cc2ccc3c(c2)OCO3)C1=S (stereo not given) = -7.91
• CC(=O)Oc1cc(C(C)C)c(OCCN(C)C)cc1C = -9.83
• CC(=O)O[C@H]1CSC[C@H]1NC(=O)c1ccccc1 = -16.1
• COc1cc2cc(C(=O)O)n(C)c2c(OC)c1OC = 17.7
• COc1ccc(C2CNC(=O)C2)cc1OC1CCCC1 (stereo not given) = 23.8
• CN1C(=O)C(O)(CC(=O)/C=C/C=C/c2ccccc2)c2ccccc21 (stereo not given) = -6.66
• CC1(C)NC(C(=O)O)Cc2c1[nH]c1ccccc21 (stereo not given) = 14.4
• COc1ccc(C(=O)/C=C/c2cc(C(=O)O)cc3c2OCOC3)c(O)c1 = -2.5
• COCCc1ccc(OCC(O)CNC(C)C)cc1 (stereo not given) = -6
• COc1cccc(C2CCCN2Cc2nc(CCC(C)C)no2)c1 (stereo not given) = 5.57
• Nc1nnc(-c2cccc(Cl)c2Cl)c(N)n1 = -13.2
• CCSc1nc(O)c(C2OC(=O)c3c2ccc(OC)c3OC)c(=O)n1CC (stereo not given) = -2.62
